- Test system: E. multilocularis metacestode vesicles
- Assay info: Metacestode vesicle viability assay (ATP, CellTiter-Glo)
- Format: cell-based, Echinococcus multilocularis
- Experimental setup: overview screen, 10 μM, singlets, 12 days, relative to DMSO control
So basically: is Viability d12 (relative viability) under 70%? Then yes (1). Not under? Then no (0).

The following molecules have reported results that may help.
O=C(O)C(Cc1c[nH]c2ccccc12)N1C(=O)c2ccccc2C1=O (stereo not drawn): no (0)
CCCCCCCc1[nH]c2ccccc2c(=O)c1O: no (0)
O=C(O)CSc1cc(NS(=O)(=O)c2cccc3cccnc23)c2ccccc2c1O: no (0)
CCCCc1ccc(-c2cc(C(=O)O)cc(-c3ccc(Cl)cc3)n2)cc1: no (0)
O=C(N[C@H](CCS)C(=O)N[C@H](Cc1ccccc1)C(=O)O)c1cc2ccccc2[nH]1: yes (1)
CCC(C)NCC(O)Cn1c2ccc(Cl)cc2c2cc(Cl)ccc21 (stereo not drawn): yes (1)
O=P(O)(O)C(CCCc1cccc(Oc2ccccc2)c1)S(=O)(=O)O (stereo not drawn): yes (1)

Pending molecule:
hey, is Viability d12 (relative viability) for NC(=O)c1c(N)sc2c1CCCCC2 lower than 70% or not?
no (0)

====

Recorded PGI d5 (relative PGI release) for the following molecules
- Tested on: E. multilocularis metacestode vesicles
- Assay info: Phosphoglucose isomerase (PGI) release assay (damage-marker release) on metacestode vesicles
- Assay type: cell-based, Echinococcus multilocularis
- Experimental setup: overview screen, 10 μM, singlets, 5 days, relative to 0.1 % Triton X-100, DMSO subtracted
Report as a plain number; the unit % is understood.

Use these answered entries as a reference point.
C=CCN(C(=O)OCc1ccc([N+](=O)[O-])cc1)C1CCN(CC[C@](C)(CN(C)S(=O)(=O)c2ccccc2)c2ccccc2)CC1: 0.9992
Cc1ccc(Oc2ccccc2-c2csc(N=C3NCCCN3)n2)c(C)c1: 4.111

Suppose we examine the molecule Cc1c(F)cccc1NC(=O)Nc1ccc(Cl)c(S(=O)(=O)[C@H]2CCCNC2)c1O ; what PGI d5 (relative PGI release) value has been reported?
1.533

====

- System: E. multilocularis metacestode vesicles
- Assay info: Phosphoglucose isomerase (PGI) release assay (damage-marker release) on metacestode vesicles
- Format: cell-based, Echinococcus multilocularis
- Experimental setup: overview screen, 10 μM, singlets, 5 days, relative to 0.1 % Triton X-100, DMSO subtracted
Assay metric: PGI d5 (relative PGI release) (%)
Report as a plain number; the unit % is understood.

Use these answered entries as a reference point.
COc1ccc(NC(=O)CC2Sc3ncnn3C2=O)cc1 (stereo not shown) [MMV1483032]: 0.1451
COc1ccc2c(c1)cc(CNC(=O)c1cc3ccccc3o1)n2CC(=O)O [MMV1581553]: -2.902
O=C1[C@H](CC[C@H](O)c2ccc(F)cc2)[C@@H](c2ccc(O)cc2)N1c1ccc(F)cc1 [MMV1581377]: -0.5323
CSc1ccc2c(c1)C(N1CCN(C)CC1)Cc1ccccc1S2 (stereo not shown) [MMV002505]: 0.4968
C[C@H](NC(CC(=O)c1ccccc1C(F)(F)F)C(=O)O)c1ccccc1 (stereo partly shown) [MMV1579778]: -3.315
COc1ccccc1NC(=O)c1ccccc1Sc1ccc([N+](=O)[O-])cc1 [MMV1580484]: -0.1612
CN1CCN(c2ccc3[nH]c(-c4ccc5[nH]c(-c6ccc(O)cc6)nc5c4)nc3c2)CC1 [MMV020752]: -2.507
CC(C)Nc1ncnc2c1cnn2-c1ccc(Cl)cc1 [MMV108465]: -2.878
Cn1c2ccccc2c(=O)c2c(O)cccc21 [MMV1580500]: 1.098
N[C@H](CCC(=O)N[C@@H](Cc1c[nH]c2ccccc12)C(=O)O)C(=O)O [MMV1581033]: 0.0006202

For E. multilocularis metacestode vesicles, provide PGI d5 (relative PGI release) of Nc1cc(-c2nc3ccccc3[nH]2)n[nH]c1=O [MMV975972] please.
0.8096

For E. multilocularis metacestode vesicles, provide PGI d5 (relative PGI release) of Nc1nc(F)nc2c1ncn2[C@@H]1O[C@H](CO)[C@@H](O)[C@@H]1O [MMV637413] please.
-0.694

For E. multilocularis metacestode vesicles, provide PGI d5 (relative PGI release) of O=C(NC1CCCc2c1[nH]c1ccc(Cl)cc21)c1ccccn1 (stereo not shown) [MMV690621] please.
0.1463

For E. multilocularis metacestode vesicles, provide PGI d5 (relative PGI release) of OCCCCn1cnc2c(O)nc(NCc3ccc(Cl)c(Cl)c3)nc21 [MMV1593542] please.
-1.805

For E. multilocularis metacestode vesicles, provide PGI d5 (relative PGI release) of CONC(=N)c1ccc(-c2ccc(-c3ccc(C(=N)NOC)cc3)o2)cc1 [MMV000059] please.
-1.411

For E. multilocularis metacestode vesicles, provide PGI d5 (relative PGI release) of O=C(/C=C/n1cnc(-c2cc(C(F)(F)F)cc(C(F)(F)F)c2)n1)NNc1cnccn1 [MMV1593517] please.
1.037

For E. multilocularis metacestode vesicles, provide PGI d5 (relative PGI release) of NC(=O)c1nccn([C@@H]2O[C@H](CO)[C@@H](O)[C@H]2O)c1=O [MMV1782104] please.
1.472

For E. multilocularis metacestode vesicles, provide PGI d5 (relative PGI release) of CCCCCc1ccc(C(=O)NCCn2cc(CCCCCc3c[nH]c(N)n3)nn2)cc1.Cl [MMV1580847] please.
2.795

For E. multilocularis metacestode vesicles, provide PGI d5 (relative PGI release) of COc1ccc2sc3c(c2c1)NC(C)CNC3=O (stereo not shown) [MMV1782115] please.
-1.121
